biological target: human NOP receptor (Homo sapiens, UniProt P41146); construct: expressed in transfected cells; host or cells: CHO cells stably coexpressing the receptor and chimeric Gαqi5; assay: Calcium mobilization, NOP receptor; format: cell-based; details: read-out: NOP Emax ± S.E.M., Table 2 series; percent over the baseline fluorescence; mean ± SEM of at least three experiments in duplicate; SEM
Sequence (P41146 whole entry): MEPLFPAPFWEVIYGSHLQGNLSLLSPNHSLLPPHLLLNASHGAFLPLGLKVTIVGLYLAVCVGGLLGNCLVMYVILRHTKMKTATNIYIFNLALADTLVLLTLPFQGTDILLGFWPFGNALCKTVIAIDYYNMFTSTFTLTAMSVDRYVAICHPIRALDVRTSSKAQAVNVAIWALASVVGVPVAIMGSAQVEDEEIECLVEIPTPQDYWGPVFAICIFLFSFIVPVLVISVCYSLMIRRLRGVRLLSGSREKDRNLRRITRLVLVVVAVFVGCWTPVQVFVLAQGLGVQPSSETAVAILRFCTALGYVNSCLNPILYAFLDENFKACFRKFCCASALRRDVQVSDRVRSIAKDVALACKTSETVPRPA
Where a SMILES comes first, the peptide text is derived from it. [ ]: non-standard residue; d: D form. Phe(4-NO2) = N[C@@H](Cc1ccc([N+](=O)[O-])cc1)C(=O)O; Phe(4-NH2) = Nc1ccc(C[C@H](N)C(=O)O)cc1; 1Nal = N[C@@H](Cc1cccc2ccccc12)C(=O)O
Some compounds, each annotated with its measured Emax.

compound: C[C@H](NC(=O)CNC(=O)[C@H](Cc1ccc(N)cc1)NC(=O)[C@H](Cc1ccccc1)NC(=O)CNC(=O)CNC(=O)[C@@H](N)Cc1ccc(O)cc1)C(=O)N[C@@H](CCCNC(=N)N)C(=O)N[C@@H](CCCCN)C(=O)N[C@@H](CO)C(=O)N[C@@H](C)C(=O)N[C@@H](CCCNC(=N)N)C(=O)N[C@@H](CCCCN)C(N)=O [Compound 27, [Tyr^1,(pNH2)Phe^5]N/OFQ(1-13)-NH2] (H-YGGF[Phe(4-NH2)]GARKSARK-NH2)
Emax: 274%
--
compound: C[C@H](NC(=O)CNC(=O)[C@H](Cc1ccc([N+](=O)[O-])cc1)NC(=O)[C@H](Cc1ccccc1)NC(=O)CNC(=O)CNC(=O)[C@@H](N)Cc1ccc(O)cc1)C(=O)N[C@@H](CCCNC(=N)N)C(=O)N[C@@H](CCCCN)C(=O)N[C@@H](CO)C(=O)N[C@@H](C)C(=O)N[C@@H](CCCNC(=N)N)C(=O)N[C@@H](CCCCN)C(N)=O [Compound 22, [Tyr^1,(pNO2)Phe^5]N/OFQ(1-13)-NH2] (H-YGGF[Phe(4-NO2)]GARKSARK-NH2)
Emax: 305%
--
compound: C[C@H](NC(=O)CNC(=O)[C@H](Cc1cccc2ccccc12)NC(=O)[C@H](Cc1ccccc1)NC(=O)CNC(=O)CNC(=O)[C@@H](N)Cc1ccc(O)cc1)C(=O)N[C@@H](CCCNC(=N)N)C(=O)N[C@@H](CCCCN)C(=O)N[C@@H](CO)C(=O)N[C@@H](C)C(=O)N[C@@H](CCCNC(=N)N)C(=O)N[C@@H](CCCCN)C(N)=O [Compound 25, [Tyr^1,1Nal^5]N/OFQ(1-13)-NH2] (H-YGGF[1Nal]GARKSARK-NH2)
Emax: 245%

----------
Some compounds, each annotated with its measured Emax.
target: human NOP receptor (Homo sapiens, UniProt P41146); construct: expressed in transfected cells; host or cells: CHO cells stably coexpressing the receptor and chimeric Gαqi5; assay: Calcium mobilization, NOP receptor; format: cell-based; settings: read-out: NOP Emax ± S.E.M., Table 1 series; maximum change in fluorescence as percent over the baseline fluorescence; mean ± SEM of at least three experiments in duplicate; SEM
Where a SMILES comes first, the peptide text is derived from it. [ ]: non-standard residue; d: D form. Nle = CCCC[C@H](N)C(=O)O; Dab = NCC[C@H](N)C(=O)O; Nva = CCC[C@H](N)C(=O)O; Abu = CC[C@H](N)C(=O)O; Dap = NC[C@H](N)C(=O)O

compound: CC[C@H](NC(=O)[C@H](Cc1ccccc1)NC(=O)CNC(=O)CNC(=O)[C@@H](N)Cc1ccc(O)cc1)C(=O)NCC(=O)N[C@@H](C)C(=O)N[C@@H](CCCNC(=N)N)C(=O)N[C@@H](CCCCN)C(=O)N[C@@H](CO)C(=O)N[C@@H](C)C(=O)N[C@@H](CCCNC(=N)N)C(=O)N[C@@H](CCCCN)C(N)=O [Compound 7, [Tyr^1,Abu^5]N/OFQ(1-13)-NH2] (H-YGGF[Abu]GARKSARK-NH2)
target_entity: human NOP receptor (Homo sapiens, UniProt P41146)
readout_units: %
Emax: 366
//
compound: C[C@H](NC(=O)CNC(=O)[C@H](CN)NC(=O)[C@H](Cc1ccccc1)NC(=O)CNC(=O)CNC(=O)[C@@H](N)Cc1ccc(O)cc1)C(=O)N[C@@H](CCCNC(=N)N)C(=O)N[C@@H](CCCCN)C(=O)N[C@@H](CO)C(=O)N[C@@H](C)C(=O)N[C@@H](CCCNC(=N)N)C(=O)N[C@@H](CCCCN)C(N)=O [Compound 9, [Tyr^1,Dap^5]N/OFQ(1-13)-NH2] (H-YGGF[Dap]GARKSARK-NH2)
target_entity: human NOP receptor (Homo sapiens, UniProt P41146)
readout_units: %
Emax: 367
//
compound: C[C@H](NC(=O)CNC(=O)[C@H](CCN)NC(=O)[C@H](Cc1ccccc1)NC(=O)CNC(=O)CNC(=O)[C@@H](N)Cc1ccc(O)cc1)C(=O)N[C@@H](CCCNC(=N)N)C(=O)N[C@@H](CCCCN)C(=O)N[C@@H](CO)C(=O)N[C@@H](C)C(=O)N[C@@H](CCCNC(=N)N)C(=O)N[C@@H](CCCCN)C(N)=O [Compound 10, [Tyr^1,Dab^5]N/OFQ(1-13)-NH2] (H-YGGF[Dab]GARKSARK-NH2)
target_entity: human NOP receptor (Homo sapiens, UniProt P41146)
readout_units: %
Emax: 340
//
compound: CCC[C@H](NC(=O)[C@H](Cc1ccccc1)NC(=O)CNC(=O)CNC(=O)[C@@H](N)Cc1ccc(O)cc1)C(=O)NCC(=O)N[C@@H](C)C(=O)N[C@@H](CCCNC(=N)N)C(=O)N[C@@H](CCCCN)C(=O)N[C@@H](CO)C(=O)N[C@@H](C)C(=O)N[C@@H](CCCNC(=N)N)C(=O)N[C@@H](CCCCN)C(N)=O [Compound 13, [Tyr^1,Nva^5]N/OFQ(1-13)-NH2] (H-YGGF[Nva]GARKSARK-NH2)
target_entity: human NOP receptor (Homo sapiens, UniProt P41146)
readout_units: %
Emax: 358
//
compound: CCCC[C@H](NC(=O)[C@H](Cc1ccccc1)NC(=O)CNC(=O)CNC(=O)[C@@H](N)Cc1ccc(O)cc1)C(=O)NCC(=O)N[C@@H](C)C(=O)N[C@@H](CCCNC(=N)N)C(=O)N[C@@H](CCCCN)C(=O)N[C@@H](CO)C(=O)N[C@@H](C)C(=O)N[C@@H](CCCNC(=N)N)C(=O)N[C@@H](CCCCN)C(N)=O [Compound 12, [Tyr^1,Nle^5]N/OFQ(1-13)-NH2] (H-YGGF[Nle]GARKSARK-NH2)
target_entity: human NOP receptor (Homo sapiens, UniProt P41146)
readout_units: %
Emax: 375

----------
target: human NOP receptor (Homo sapiens); construct: expressed in transfected cells; host or cells: CHO cells stably coexpressing the receptor and chimeric Gαqi5; assay: Calcium mobilization, NOP receptor; format: cell-based; conditions: Table 1 series; calcium mobilization, NOP versus mu
Where a SMILES comes first, the peptide text is derived from it. [ ]: non-standard residue; d: D form. Nle = CCCC[C@H](N)C(=O)O; Dab = NCC[C@H](N)C(=O)O; Abu = CC[C@H](N)C(=O)O; Dap = NC[C@H](N)C(=O)O

molecule: CCCC[C@H](NC(=O)[C@H](Cc1ccccc1)NC(=O)CNC(=O)CNC(=O)[C@@H](N)Cc1ccc(O)cc1)C(=O)NCC(=O)N[C@@H](C)C(=O)N[C@@H](CCCNC(=N)N)C(=O)N[C@@H](CCCCN)C(=O)N[C@@H](CO)C(=O)N[C@@H](C)C(=O)N[C@@H](CCCNC(=N)N)C(=O)N[C@@H](CCCCN)C(N)=O [Compound 12, [Tyr^1,Nle^5]N/OFQ(1-13)-NH2] (H-YGGF[Nle]GARKSARK-NH2)
NOP/mu CR (concentration ratio): 0.01
--
molecule: C[C@H](NC(=O)CNC(=O)[C@H](CN)NC(=O)[C@H](Cc1ccccc1)NC(=O)CNC(=O)CNC(=O)[C@@H](N)Cc1ccc(O)cc1)C(=O)N[C@@H](CCCNC(=N)N)C(=O)N[C@@H](CCCCN)C(=O)N[C@@H](CO)C(=O)N[C@@H](C)C(=O)N[C@@H](CCCNC(=N)N)C(=O)N[C@@H](CCCCN)C(N)=O [Compound 9, [Tyr^1,Dap^5]N/OFQ(1-13)-NH2] (H-YGGF[Dap]GARKSARK-NH2)
NOP/mu CR (concentration ratio): 0.06
--
molecule: C[C@H](NC(=O)CNC(=O)[C@H](CCN)NC(=O)[C@H](Cc1ccccc1)NC(=O)CNC(=O)CNC(=O)[C@@H](N)Cc1ccc(O)cc1)C(=O)N[C@@H](CCCNC(=N)N)C(=O)N[C@@H](CCCCN)C(=O)N[C@@H](CO)C(=O)N[C@@H](C)C(=O)N[C@@H](CCCNC(=N)N)C(=O)N[C@@H](CCCCN)C(N)=O [Compound 10, [Tyr^1,Dab^5]N/OFQ(1-13)-NH2] (H-YGGF[Dab]GARKSARK-NH2)
NOP/mu CR (concentration ratio): 0.37
--
molecule: CC[C@H](NC(=O)[C@H](Cc1ccccc1)NC(=O)CNC(=O)CNC(=O)[C@@H](N)Cc1ccc(O)cc1)C(=O)NCC(=O)N[C@@H](C)C(=O)N[C@@H](CCCNC(=N)N)C(=O)N[C@@H](CCCCN)C(=O)N[C@@H](CO)C(=O)N[C@@H](C)C(=O)N[C@@H](CCCNC(=N)N)C(=O)N[C@@H](CCCCN)C(N)=O [Compound 7, [Tyr^1,Abu^5]N/OFQ(1-13)-NH2] (H-YGGF[Abu]GARKSARK-NH2)
NOP/mu CR (concentration ratio): 0.007

These data points were gathered from paper PMC8279409.
